molecular target: c-KIT (Homo sapiens, UniProt P10721); construct: M-07e cells (human acute megakaryoblastic leukemia cell line) were serum-starved for 4 hours; endogenous in cells; test: c-KIT Cell-Based Assay (Example D); details: averaged IC50; phospho-c-KIT in M-07e cells stimulated with 150 ng/ml recombinant human SCF; read-out: cKIT Cell ELISA IC50
Sequence (P10721 26-976): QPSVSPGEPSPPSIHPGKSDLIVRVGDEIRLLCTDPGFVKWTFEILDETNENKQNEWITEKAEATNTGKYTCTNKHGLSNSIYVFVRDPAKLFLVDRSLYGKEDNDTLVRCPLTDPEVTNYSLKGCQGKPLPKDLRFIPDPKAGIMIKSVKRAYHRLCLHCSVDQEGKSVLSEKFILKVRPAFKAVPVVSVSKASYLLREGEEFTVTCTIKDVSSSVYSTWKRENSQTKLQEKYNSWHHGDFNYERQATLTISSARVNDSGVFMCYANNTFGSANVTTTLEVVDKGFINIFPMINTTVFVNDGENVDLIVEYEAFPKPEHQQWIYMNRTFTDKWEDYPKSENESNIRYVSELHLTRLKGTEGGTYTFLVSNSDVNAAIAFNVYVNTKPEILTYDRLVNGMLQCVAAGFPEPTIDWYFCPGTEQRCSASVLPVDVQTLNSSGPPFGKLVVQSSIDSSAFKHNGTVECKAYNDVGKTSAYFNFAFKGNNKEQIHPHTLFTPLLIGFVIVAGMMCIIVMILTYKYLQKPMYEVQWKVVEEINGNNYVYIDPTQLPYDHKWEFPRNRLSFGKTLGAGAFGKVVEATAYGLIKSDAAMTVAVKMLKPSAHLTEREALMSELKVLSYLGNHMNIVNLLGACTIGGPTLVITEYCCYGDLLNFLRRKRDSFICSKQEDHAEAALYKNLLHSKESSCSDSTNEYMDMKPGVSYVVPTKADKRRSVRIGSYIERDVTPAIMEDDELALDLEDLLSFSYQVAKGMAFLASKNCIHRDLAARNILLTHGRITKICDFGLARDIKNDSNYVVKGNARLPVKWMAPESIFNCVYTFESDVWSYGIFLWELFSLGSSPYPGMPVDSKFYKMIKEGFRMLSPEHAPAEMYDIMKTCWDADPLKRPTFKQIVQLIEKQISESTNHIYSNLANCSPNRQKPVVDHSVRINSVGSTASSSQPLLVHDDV
Counter-ions that a name gives are not always drawn.
log10(IC50) for assorted compounds
Quick note: numbers are log10 of IC50, with nM as the unit.

Cc1nn(Cc2csc(C(C)C)n2)c2cccc(NC(=O)c3cnc4cc(OCCN5CC6(COC6)C5)ccn34)c12; 1.98
COCCOc1ccn2c(C(=O)Nc3cccc4c3cnn4Cc3ccc(C)nc3)cnc2c1; 0.98

# lookup: log10(IC50) of COCCOc1ccn2c(C(=O)Nc3cccc4c3cnn4CC3CCCNC3)cnc2c1 (stereo not drawn) [Example 131, hydrochloride] 3.70

Same question for Cc1nn(Cc2cccc(C(C)C)n2)c2cccc(NC(=O)c3cnc4cc(OCCN5C[C@@H](C)N(C)[C@@H](C)C5)ccn34)c12 please. 1.64

Same question for COCCOc1ccn2c(C(=O)Nc3cccc4c3cnn4Cc3cccc(OC)c3)cnc2c1 please. 0.68

Same question for Cc1nn(Cc2cccc(C3CCC3)n2)c2cccc(NC(=O)c3cnc4cc(OCCN5CCN(C)[C@@H](C)C5)ccn34)c12 please. 1.63

Same question for Cc1cccc(Cn2nc(C)c3c(NC(=O)c4cnc5cc(OCCN6CCN(C(=O)OC(C)(C)C)CC6)ccn45)cccc32)n1 please. 3.06

Same question for COc1ccc2ncc(C(=O)Nc3cccc4c3cnn4Cc3ccccc3)n2c1 please. 0.99

Same question for Cc1cccc(Cn2nc(C)c3c(NC(=O)c4cnc5cc(CCN6CCCC6)ccn45)cccc32)n1 please. 3.70

====

biological target: PDGFR beta (Homo sapiens); construct: endogenous in cells; host or cells: HS27 human fibroblast cell line; experiment: Phospho PDGFR Cell Assay, sandwich ELISA (Example A); format: cell-based; details: averaged IC50, PDGFR beta phosphorylation in HS27 human fibroblast cell line, PDGF-BB stimulation 5 minutes
Sequence (P09619 33-1106): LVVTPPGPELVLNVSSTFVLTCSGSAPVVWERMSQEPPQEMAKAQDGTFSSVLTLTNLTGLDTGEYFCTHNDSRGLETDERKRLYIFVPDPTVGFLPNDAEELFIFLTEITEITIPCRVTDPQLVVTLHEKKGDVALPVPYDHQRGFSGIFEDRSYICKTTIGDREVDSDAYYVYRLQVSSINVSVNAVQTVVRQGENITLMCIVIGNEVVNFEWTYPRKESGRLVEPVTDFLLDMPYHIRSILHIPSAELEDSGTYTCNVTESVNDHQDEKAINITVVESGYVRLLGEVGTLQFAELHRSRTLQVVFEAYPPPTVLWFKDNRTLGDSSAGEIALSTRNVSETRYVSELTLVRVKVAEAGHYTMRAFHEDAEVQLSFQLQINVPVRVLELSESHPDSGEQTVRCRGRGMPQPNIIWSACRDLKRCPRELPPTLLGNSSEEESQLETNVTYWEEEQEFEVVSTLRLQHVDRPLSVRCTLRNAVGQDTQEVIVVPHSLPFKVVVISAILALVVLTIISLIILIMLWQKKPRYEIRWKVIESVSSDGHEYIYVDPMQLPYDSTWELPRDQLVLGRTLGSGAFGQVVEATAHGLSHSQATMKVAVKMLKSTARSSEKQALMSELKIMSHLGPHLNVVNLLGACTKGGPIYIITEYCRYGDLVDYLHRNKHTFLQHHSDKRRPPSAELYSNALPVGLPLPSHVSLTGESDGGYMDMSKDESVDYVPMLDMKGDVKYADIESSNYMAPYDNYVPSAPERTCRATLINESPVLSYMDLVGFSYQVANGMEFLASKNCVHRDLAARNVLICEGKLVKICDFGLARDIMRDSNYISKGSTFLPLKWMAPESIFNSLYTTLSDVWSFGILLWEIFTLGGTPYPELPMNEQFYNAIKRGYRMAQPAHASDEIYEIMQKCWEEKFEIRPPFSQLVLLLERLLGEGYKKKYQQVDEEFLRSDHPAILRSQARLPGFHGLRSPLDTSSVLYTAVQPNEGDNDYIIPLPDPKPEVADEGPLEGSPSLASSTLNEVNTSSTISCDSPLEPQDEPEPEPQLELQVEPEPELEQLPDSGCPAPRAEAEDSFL
Structures can show the parent of a compound that is named as a salt.
IC50 for assorted molecules

Example cases with answers are listed next.
Cc1cccc(Cn2nc(C)c3c(NC(=O)c4cnc5cc(OCCN6CCN(C(=O)OC(C)(C)C)CC6)ccn45)cccc32)n1; ≥ 1 µM
CC(=O)c1ccn2c(C(=O)Nc3cccc4c3c(C)nn4Cc3cccc(C)n3)cnc2c1; ≥ 1 µM
Cc1cc(C)nc(Cn2nc(C)c3c(NC(=O)c4cnc5cc(OCCN6CCN(C)[C@@H](C)C6)ccn45)cccc32)c1; ≥ 1 µM

# lookup: IC50 of Cc1cccc(Cn2nc(C)c3c(NC(=O)c4cnc5cc(C(C)NCCO)ccn45)cccc32)n1 (stereo not drawn) ≥ 1 µM

Same question for Cc1cccc(Cn2nc(C)c3c(NC(=O)c4cnc5cc(C6CCNCC6)ccn45)cccc32)n1 [Example 52, tri-hydrochloride] please. ≥ 1 µM

Same question for COCCOc1ccn2c(C(=O)Nc3cccc4c3c(C)nn4CC3CC3)cnc2c1 please. ≥ 1 µM

====

IC50 for assorted compounds
target: cFMS (Homo sapiens, UniProt P07333); construct: THP-1 cells (human acute monocytic leukemia cell line) were serum-starved for 4 hours; endogenous in cells; assay: cFMS Cell-Based Assay (Example C); conditions: averaged IC50; phospho-cFMS in THP-1 cells stimulated with 250 ng/mL recombinant human MCSF; read-out: cFMS Cell ELISA IC50
Sequence (P07333 20-972): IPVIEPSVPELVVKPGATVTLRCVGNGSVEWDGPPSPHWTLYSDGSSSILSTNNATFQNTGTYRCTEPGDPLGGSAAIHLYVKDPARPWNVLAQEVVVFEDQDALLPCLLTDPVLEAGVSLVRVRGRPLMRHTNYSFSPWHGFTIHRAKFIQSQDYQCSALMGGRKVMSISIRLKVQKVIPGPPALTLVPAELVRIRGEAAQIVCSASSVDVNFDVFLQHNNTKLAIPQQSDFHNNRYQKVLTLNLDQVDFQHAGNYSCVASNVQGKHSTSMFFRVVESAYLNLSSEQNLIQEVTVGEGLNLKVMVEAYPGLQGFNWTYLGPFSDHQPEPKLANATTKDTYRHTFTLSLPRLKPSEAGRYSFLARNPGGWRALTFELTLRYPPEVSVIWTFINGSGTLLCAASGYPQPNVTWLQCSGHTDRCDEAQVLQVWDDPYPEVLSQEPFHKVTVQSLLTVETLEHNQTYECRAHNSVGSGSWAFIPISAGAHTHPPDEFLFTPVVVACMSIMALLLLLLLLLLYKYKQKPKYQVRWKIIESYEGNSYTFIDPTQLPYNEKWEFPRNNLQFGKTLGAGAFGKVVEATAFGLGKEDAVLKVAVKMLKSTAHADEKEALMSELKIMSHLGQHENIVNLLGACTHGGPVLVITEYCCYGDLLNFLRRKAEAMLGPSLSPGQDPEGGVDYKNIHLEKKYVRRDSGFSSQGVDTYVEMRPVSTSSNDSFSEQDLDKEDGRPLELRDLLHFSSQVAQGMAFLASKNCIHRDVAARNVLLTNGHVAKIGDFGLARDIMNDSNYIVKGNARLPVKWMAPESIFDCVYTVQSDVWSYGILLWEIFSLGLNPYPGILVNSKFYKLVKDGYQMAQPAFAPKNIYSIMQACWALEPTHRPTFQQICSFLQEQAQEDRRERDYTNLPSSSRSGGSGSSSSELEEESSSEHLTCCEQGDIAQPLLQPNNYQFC
Structures can show the parent of a compound that is named as a salt.
Record the value in nM, omitting the unit from your answer.

Cc1nn(Cc2ccc(C(F)(F)F)cn2)c2cccc(NC(=O)c3cnc4cc(OCCN5CCN(C(C)C)CC5)ccn34)c12; 22.7
Cc1nn(Cc2cc(C)n(C(C)C)n2)c2cccc(NC(=O)c3cnc4cc(OCCN5C[C@@H](C)N(C)[C@@H](C)C5)ccn34)c12; 21.2
CN1CCN(CCOc2ccn3c(C(=O)Nc4cccc5c4cnn5Cc4cccn(C)c4=O)cnc3c2)CC1 [Example 104, dihydrochloride]; 33.7

Requested read-out IC50, target or system cFMS (Homo sapiens, UniProt P07333), entry Cc1nn(Cc2cccc(CC(C)C)n2)c2cccc(NC(=O)c3cnc4cc(OCCN5CCN(C)[C@@H](C)C5)ccn34)c12 55.8

Same question for COCCOc1ccn2c(C(=O)Nc3cccc4c3cnn4CC3CCCCC3)cnc2c1 please. 24.1

Same question for Cc1cccc(Cn2nc(C)c3c(NC(=O)c4cnc5cc(C(C)O)ccn45)cccc32)n1 (stereo not drawn) please. 47

Same question for Cc1nn(Cc2cccc(C3CCC3)n2)c2cccc(NC(=O)c3cnc4cc(OCCN5CCN(C)[C@@H](C)C5)ccn34)c12 please. 24.2

Same question for COCCOc1ccn2c(C(=O)Nc3cccc4c3cnn4Cc3ccc(OC)cc3)cnc2c1 please. 24.6

Same question for COCCNCCc1ccn2c(C(=O)Nc3cccc4c3c(C)nn4Cc3cccc(C)n3)cnc2c1 please. 79.5

Same question for Cc1nn(Cc2cccc(C(C)C)n2)c2cccc(NC(=O)c3cnc4cc(OCCN5CCN(C)[C@@H](C)C5)ccn34)c12 please. 23.8

Same question for Cc1cccc(Cn2nc(C)c3c(NC(=O)c4cnc5cc(F)ccn45)cccc32)n1 please. 73.5

====

target: cFMS (Homo sapiens); construct: THP-1 cells (human acute monocytic leukemia cell line) were serum-starved for 4 hours; endogenous in cells; assay: cFMS Cell-Based Assay (Example C); conditions: averaged IC50; phospho-cFMS in THP-1 cells stimulated with 250 ng/mL recombinant human MCSF; read-out: cFMS Cell ELISA IC50
pIC50: −log10 of the molar value.
Binary call on pIC50: Condition met from 8 upward, Condition not met beneath that.

Record excerpt, results attached:
COCCOc1ccn2c(C(=O)Nc3c(Br)ccc4c3cnn4Cc3ccccc3)cnc2c1; Condition met
Cc1cccc(Cn2nc(C)c3c(NC(=O)c4cnc5ccc(C#N)cn45)cccc32)n1; Condition not met
COCCOc1ccn2c(C(=O)Nc3cccc4c3cnn4Cc3cccc(O)c3)cnc2c1; Condition not met
COCCOc1ccn2c(C(=O)Nc3cccc4c3cnn4CC3CC3)cnc2c1; Condition not met
Cc1nn(Cc2ccc(F)c(C(C)C)n2)c2cccc(NC(=O)c3cnc4cc(OCCN5CCN(C)[C@@H](C)C5)ccn34)c12; Condition not met

--- query ---
pIC50 >= 8 for O=C(Nc1cccc2c1cnn2Cc1ccccc1)c1cnc2ccc(Br)cn12 ? Condition not met

====

target: c-KIT (Homo sapiens); construct: M-07e cells (human acute megakaryoblastic leukemia cell line) were serum-starved for 4 hours; endogenous in cells; host or cells: M-07e cells (human acute megakaryoblastic leukemia cell line); assay: c-KIT Cell-Based Assay (Example D); conditions: averaged IC50; phospho-c-KIT in M-07e cells stimulated with 150 ng/ml recombinant human SCF; read-out: cKIT Cell ELISA IC50
Where a name gives a salt, the structure may show the parent alone.
IC50 for assorted molecules
Record the value in nM, omitting the unit from your answer.

CCOc1cccc(Cn2nc(C)c3c(NC(=O)c4cnc5cc(OCCN6CCN(C)CC6)ccn45)cccc32)n1 [Example 86]; 314
CN1CCN(CCOc2ccn3c(C(=O)Nc4cccc5c4cnn5Cc4ccc5[nH]cnc5c4)cnc3c2)CC1 [Example 108, dihydrochloride]; 181

Here's the next entry for you.
# lookup: IC50 of O=C(Nc1cccc2c1cnn2Cc1ccccc1)c1cnc2cc(O)ccn12 [Example 92] 205

====

IC50 for assorted compounds
biological target: cFMS (Homo sapiens, UniProt P07333); construct: THP-1 cells (human acute monocytic leukemia cell line) were serum-starved for 4 hours; endogenous in cells; experiment: cFMS Cell-Based Assay (Example C); conditions: averaged IC50; phospho-cFMS in THP-1 cells stimulated with 250 ng/mL recombinant human MCSF; read-out: cFMS Cell ELISA IC50
Counter-ions that a name gives are not always drawn.
Record the value in nM, omitting the unit from your answer.

Example cases with answers are listed next.
Cc1cccc(Cn2nc(C)c3c(NC(=O)c4cnc5cc(OCCN6CCCC6)ccn45)cccc32)n1 [Example 55, dihydrochloride]; 40.1
COCCOc1ccn2c(C(=O)Nc3cccc4c3cnn4Cc3cccc(OCc4ccccc4)c3)cnc2c1 [Example 119]; 26.3
Cc1nn(Cc2csc(C(C)C)n2)c2cccc(NC(=O)c3cnc4cc(OCCN5CCN(C(C)C)CC5)ccn34)c12 [Example 15]; 12
Cc1nn(Cc2cccc(C(C)C)n2)c2cccc(NC(=O)c3cnc4cc(OCCN5C[C@@H](C)N(C)[C@@H](C)C5)ccn34)c12 [Example 7]; 20.8
CN1CCN(CCOc2ccn3c(C(=O)Nc4cccc5c4cnn5Cc4cccnc4)cnc3c2)CC1 [Example 102, trihydrochloride]; 26

Here's the next entry for you.
# lookup: IC50 of Cc1nn(Cc2cc(C)n(C(C)C)n2)c2cccc(NC(=O)c3cnc4cc(OCCN5CCN(C)[C@@H](C)C5)ccn34)c12 [Example 29] 28.6

====

target: PDGFR beta (Homo sapiens); construct: endogenous in cells; host or cells: HS27 human fibroblast cell line; test: Phospho PDGFR LICOR Cell Assay (Example B); format: cell-based; conditions: averaged IC50; PDGFR beta phosphorylation in HS27 human fibroblast cell line, PDGF-BB stimulation 10 minutes, normalized to total ERK
Counter-ions that a name gives are not always drawn.
Recorded Metric: IC50 (nM)
Record the value in nM, omitting the unit from your answer.

Cc1cccc(Cn2nc(C)c3c(NC(=O)c4cnc5ccccn45)cccc32)n1 [Example 61]; 222
COC(=O)c1cccc(Cn2ncc3c(NC(=O)c4cnc5cc(OCCN6CCN(C)CC6)ccn45)cccc32)c1 [Example 96, dihydrochloride]; 14.6
CCN1CCN(CCOc2ccn3c(C(=O)Nc4cccc5c4c(C)nn5Cc4cccc(C(C)C)n4)cnc3c2)CC1 [Example 2]; 23.7
Cc1nn(Cc2cccc(C(C)C)n2)c2cccc(NC(=O)c3cnc4cc(OCCN5CCN(C(C)C)CC5)ccn34)c12 [Example 6]; 6.3
Cc1nc(Cn2nc(C)c3c(NC(=O)c4cnc5cc(OCCN6CCN(C)CC6)ccn45)cccc32)cs1 [Example 88]; 180
CN1CCN(CCOc2ccn3c(C(=O)Nc4cccc5c4cnn5Cc4ccc(C(F)(F)F)cn4)cnc3c2)CC1 [Example 103, trihydrochloride]; 2.7
Cc1nn(Cc2cc(C)n(C(C)C)n2)c2cccc(NC(=O)c3cnc4cc(OCCN5CC6(CN(C)C6)C5)ccn34)c12 [Example 8]; 32.6
Cc1nn(Cc2ccc(C(F)(F)F)cn2)c2cccc(NC(=O)c3cnc4cc(OCCN5CCN(C(C)C)CC5)ccn34)c12 [Example 44]; 794
CCOc1ccn2c(C(=O)Nc3cccc4c3cnn4Cc3ccccc3)cnc2c1 [Example 127]; 1.7
O=C(Nc1cccc2c1cnn2Cc1ccccc1)c1cnc2cc(OCC(O)CO)ccn12 (stereo not shown) [Example 91]; 10.9

Here's the next entry for you.
# lookup: IC50 of CN1CCN(CCOc2ccn3c(C(=O)Nc4cccc5c4cnn5Cc4cccn(C)c4=O)cnc3c2)CC1 [Example 104, dihydrochloride] 78.4
